tested on: Influenza A virus; test: Antiviral activity against influenza A (A/North Carolina/02/2009 (H1N1)) virus after 30 mins by NA-star substrate based chemiluminescent assay; assay type: functional, organism-based; conditions: 0.5 h
readout.kind: IC50

[[record]]
compound = "C/C=C\\[C@@H]1C[C@H](C(=O)O)N[C@H]1[C@@H](NC(C)=O)[C@](C)(CCC)OC"
readout_kind = "IC50"
result = "0.18 nM"

[[record]]
compound = "CCC(CC)[C@H](NC(C)=O)[C@@H]1[C@H](O)[C@@H](C(=O)O)C[C@H]1NC(=N)N [PERAMIVIR ANHYDROUS]"
readout_kind = "IC50"
result = "0.08 nM"

